# studySystem: T1, PTP1B (Homo sapiens, UniProt P18031 P18031:1-321)
# T1 sequence: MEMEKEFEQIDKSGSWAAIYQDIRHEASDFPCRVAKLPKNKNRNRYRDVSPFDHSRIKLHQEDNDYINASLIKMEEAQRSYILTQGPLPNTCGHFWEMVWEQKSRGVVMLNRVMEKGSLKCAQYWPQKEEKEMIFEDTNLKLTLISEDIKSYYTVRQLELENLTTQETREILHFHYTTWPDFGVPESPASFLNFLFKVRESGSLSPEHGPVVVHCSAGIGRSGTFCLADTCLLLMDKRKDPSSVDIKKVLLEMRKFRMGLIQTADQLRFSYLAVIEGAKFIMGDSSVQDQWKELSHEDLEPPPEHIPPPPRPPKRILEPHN
# assayName: inhibition; parent about 35 nM
# conditionDetails: tags: N-terminal His6; R&D Systems 1366-PT-050
# Procedure: Several single-base modifications of the M21 nucleic acid ligand were also tested to determine whether the changes would affect the level of inhibition. With reference to the postulated secondary structure shown in FIG. 9, the sequence at each position on the unpaired regions was modified at positions 31 through 37 and positions 42 through 46. […]
quantity: pKi
Numbers only, as −log10 of the molar value.

IN: Respond only with pKi recorded for GGGAAUUCUGUGAUCAAUUUGGCAAUCCGCCACACUAGUUC (ssRNA, [36]) [C13M21 G54U]
OUT: 7.32
